System: dengue virus type 2
Experiment: Inhibition of Dengue virus serotype-2 NS2B-NS3 protease using 2-Abz-Nle-Lys-Arg-Arg-Ser-(3-NO2)-Tyr-NH2 as substrate at 50 uM preincubated with protein for 15 mins followed by substrate addition measured for 15 mins by FRET assay
property-label: inhibition

Sample records with inhibition:
In [3]: df
Out[3]:
                                test_smiles  property_label  experimental_result
0  N=C(N)NCCC[C@@H](NC(=O)c1ccccc1)C(=O)N[C@H](CCCCN)C(=O)N[C@H](C(N)=O)c1ccc(OCc2ccccc2)cc1      inhibition                29.4%
1  N=C(N)NCCC[C@H](NC(=O)c1ccccc1)C(=O)N[C@@H](CCCCN)C(=O)N[C@H](C(N)=O)c1ccc(OCc2ccccc2)cc1      inhibition                99.9%

Quick one: inhibition of `N=C(N)NCCC[C@H](NC(=O)c1ccccc1)C(=O)N[C@@H](CCCCN)C(=O)N[C@@H](C(N)=O)c1ccc(O)cc1` ?
98%

Quick one: inhibition of `NCCCC[C@H](NC(=O)c1ccccc1)C(=O)N[C@@H](C(N)=O)c1ccc(OCc2ccccc2)cc1` ?
16.4%

Quick one: inhibition of `N=C(N)NCCC[C@H](NC(=O)c1ccccc1)C(=O)N[C@@H](CCCCN)C(=O)N[C@@H](C(N)=O)c1ccc(OCc2ccccc2)cc1` ?
100%

Quick one: inhibition of `N=C(N)NCCC[C@H](NC(=O)c1ccccc1)C(=O)N[C@@H](C(N)=O)c1ccc(OCc2ccccc2)cc1` ?
31%

Quick one: inhibition of `N=C(N)NCCC[C@H](NC(=O)c1ccccc1)C(=O)N[C@@H](CCCCN)C(=O)N[C@H](C(N)=O)c1ccc(O)cc1` ?
96.6%

Quick one: inhibition of `N=C(N)NCCC[C@@H](NC(=O)[C@@H](CCCCN)NC(=O)c1ccccc1)C(=O)N[C@H](C(N)=O)c1ccc(OCc2ccccc2)cc1` ?
23.5%

====

Assay: Inhibition of Dengue virus serotype-2 NS2B-NS3 protease using 2-Abz-Nle-Lys-Arg-Arg-Ser-(3-NO2)-Tyr-NH2 as substrate preincubated with protein for 15 mins followed by substrate addition measured for 15 mins by FRET assay
Set-up: species or system dengue virus type 2
property-label: pIC50
On this scale, pIC50 is minus log10 of a concentration expressed in M (mol/L).

Sample records with pIC50:
                                test_smiles  experimental_result
0  N=C(N)NCCC[C@H](NC(=O)c1ccsc1)C(=O)N[C@@H](CCCCN)C(=O)N[C@@H](C(N)=O)c1ccc(OCc2ccccc2)cc1                 6.75
1  CC(=O)c1ccc(C(=O)N[C@@H](CCCNC(=N)N)C(=O)N[C@@H](CCCCN)C(=O)N[C@@H](C(N)=O)c2ccc(OCc3ccccc3)cc2)cc1                 5.98
2  N=C(N)NCCC[C@H](NC(=O)c1ccc(Cl)s1)C(=O)N[C@@H](CCCCN)C(=O)N[C@@H](C(N)=O)c1ccc(OCc2ccc(Cl)cc2)cc1                 6.95
3  COc1cccc(COc2ccc([C@@H](NC(=O)[C@H](CCCCN)NC(=O)[C@H](CCCNC(=N)N)NC(=O)c3ccccc3)C(N)=O)cc2)c1                 6.83
4  N=C(N)NCCC[C@H](NC(=O)C1CCCCC1)C(=O)N[C@@H](CCCCN)C(=O)N[C@@H](C(N)=O)c1ccc(OCc2ccccc2)cc1                 6.11

Moving on to another compound below.
Quick one: pIC50 of `N=C(N)NCCC[C@H](NC(=O)c1ccccc1)C(=O)N[C@@H](CCCCN)C(=O)N[C@@H](C(N)=O)c1ccc(OCc2ccccc2C(F)(F)F)cc1` ?
6.74

====

Assay: Inhibition of Dengue virus serotype-2 NS2B-NS3 protease using 2-Abz-Nle-Lys-Arg-Arg-Ser-(3-NO2)-Tyr-NH2 as substrate preincubated with protein for 15 mins followed by substrate addition measured for 15 mins by FRET assay
Design: species or system dengue virus type 2
Listed next: entries and their corresponding pIC50.
On this scale, pIC50 is minus log10 of a concentration expressed in M (mol/L).

Sample records with pIC50:
In [3]: df
Out[3]:
                                test_smiles  experimental_result
0  N=C(N)NCCC[C@H](NC(=O)c1sccc1Cl)C(=O)N[C@@H](CCCCN)C(=O)N[C@@H](C(N)=O)c1ccc(OCc2ccc(Cl)cc2)cc1                 6.92
1  N=C(N)NCCC[C@H](NC(=O)c1cccc(C=O)c1)C(=O)N[C@@H](CCCCN)C(=O)N[C@@H](C(N)=O)c1ccc(OCc2ccccc2)cc1                 6.79
2  N=C(N)NCCC[C@H](NC(=O)/C=C/c1ccccc1)C(=O)N[C@@H](CCCCN)C(=O)N[C@@H](C(N)=O)c1ccc(OCc2ccccc2)cc1                 6.49
3  N=C(N)NCCC[C@H](NC(=O)c1ccccc1)C(=O)N[C@@H](CCCCN)C(=O)N[C@@H](C(N)=O)c1ccc(OCc2cccc(Cl)c2)cc1                 6.73
4  N=C(N)NCCC[C@H](NC(=O)c1cccs1)C(=O)N[C@@H](CCCCN)C(=O)N[C@@H](C(N)=O)c1ccc(OCc2ccc(C(F)(F)F)cc2)cc1                 7.55

Quick one: pIC50 of `N=C(N)NCCC[C@H](NC(=O)c1cc2ccccc2s1)C(=O)N[C@@H](CCCCN)C(=O)N[C@@H](C(N)=O)c1ccc(OCc2ccccc2)cc1` ?
6.35

Quick one: pIC50 of `N=C(N)NCCC[C@H](NC(=O)c1ccccc1)C(=O)N[C@@H](CCCCN)C(=O)N[C@H](C(N)=O)c1ccc(O)cc1` ?
5.01

Quick one: pIC50 of `N=C(N)NCCC[C@H](NC(=O)c1cc2ccsc2s1)C(=O)N[C@@H](CCCCN)C(=O)N[C@@H](C(N)=O)c1ccc(OCc2ccc(C(F)(F)F)cc2)cc1` ?
6.69

====

Biological target: UniProt P00734
Experiment: Inhibition of thrombin (unknown origin) using Boc-Val-Pro-Arg-AMC as substrate at 25 uM preincubated with protein for 15 mins followed by substrate addition measured for 10 mins by continuous fluorimetric assay relative to control
Activity calls are given as the source filed them. The rule behind the calls is not given here.
property-label: inhibition

Sample records with inhibition:
>>> df
                                test_smiles     test_system  experimental_result
0  N=C(N)NCCC[C@H](NC(=O)c1ccc(-c2cccs2)s1)C(=O)N[C@@H](CCCCN)C(=O)N[C@@H](C(N)=O)c1ccc(OCc2ccc(Cl)c(Cl)c2)cc1  UniProt P00734             inactive
1  N=C(N)NCCC[C@H](NC(=O)c1sccc1-n1cccc1)C(=O)N[C@@H](CCCCN)C(=O)N[C@@H](C(N)=O)c1ccc(OCc2ccccc2)cc1  UniProt P00734                < 30%
2  N=C(N)NCCC[C@H](NC(=O)c1nccs1)C(=O)N[C@@H](CCCCN)C(=O)N[C@@H](C(N)=O)c1ccc(OCc2ccccc2)cc1  UniProt P00734                < 30%
3  N=C(N)NCCC[C@H](NC(=O)c1ccccc1)C(=O)N[C@@H](CCCCN)C(=O)N[C@@H](C(N)=O)c1ccc(OCc2cccc(Cl)c2)cc1  UniProt P00734                < 30%
4  N=C(N)NCCC[C@H](NC(=O)c1ccc(-c2ccccc2)s1)C(=O)N[C@@H](CCCCN)C(=O)N[C@@H](C(N)=O)c1ccc(OCc2ccccc2)cc1  UniProt P00734                < 30%

Quick one: inhibition of `N=C(N)NCCC[C@H](NC(=O)c1cc2ccccc2s1)C(=O)N[C@@H](CCCCN)C(=O)N[C@@H](C(N)=O)c1ccc(OCc2ccccc2)cc1` ?
< 30%

Quick one: inhibition of `N=C(N)NCCC[C@H](NC(=O)c1ccccc1)C(=O)N[C@@H](CCCCN)C(=O)N[C@@H](C(N)=O)c1ccc(OCC(=O)c2ccccc2)cc1` ?
< 30%

Quick one: inhibition of `N=C(N)NCCC[C@H](NC(=O)c1ccc(Cl)s1)C(=O)N[C@@H](CCCCN)C(=O)N[C@@H](C(N)=O)c1ccc(OCc2ccc(Cl)cc2)cc1` ?
inactive

====

Test system: West Nile virus
Assay: Inhibition of West Nile virus NS2B-NS3 protease using 2-Abz-Gly-Leu-Lys-Arg-Gly-Gly-[…]-Tyr-NH2 as substrate at 50 uM preincubated with protein for 15 mins followed by substrate addition measured for 15 mins by FRET assay
property-label: inhibition (%)
State the answer as a number, implicitly in %.

Sample records with inhibition:
>>> print(df.to_string())
                                test_smiles      test_system  unit_of_measurement  experimental_result
0  COc1cccc(COc2ccc([C@@H](NC(=O)[C@H](CCCCN)NC(=O)[C@H](CCCNC(=N)N)NC(=O)c3ccccc3)C(N)=O)cc2)c1  West Nile virus                    %                   99
1  CC(=O)c1ccc(C(=O)N[C@@H](CCCNC(=N)N)C(=O)N[C@@H](CCCCN)C(=O)N[C@@H](C(N)=O)c2ccc(OCc3ccccc3)cc2)cc1  West Nile virus                    %                 84.6
2  N=C(N)NCCC[C@H](NC(=O)C1CC1)C(=O)N[C@@H](CCCCN)C(=O)N[C@@H](C(N)=O)c1ccc(OCc2ccccc2)cc1  West Nile virus                    %                  100
3  N=C(N)NCCC[C@H](NC(=O)c1cccs1)C(=O)N[C@@H](CCCCN)C(=O)N[C@@H](C(N)=O)c1ccc(OCc2ccccc2)cc1  West Nile virus                    %                   98

GET /values?readout=inhibition&system=West Nile virus&item= `N=C(N)NCCC[C@H](NC(=O)c1sccc1-n1cccc1)C(=O)N[C@@H](CCCCN)C(=O)N[C@@H](C(N)=O)c1ccc(OCc2ccccc2)cc1`
94.3

GET /values?readout=inhibition&system=West Nile virus&item= `N=C(N)NCCC[C@H](NC(=O)c1cc2sccc2s1)C(=O)N[C@@H](CCCCN)C(=O)N[C@@H](C(N)=O)c1ccc(OCc2ccccc2)cc1`
92.5

GET /values?readout=inhibition&system=West Nile virus&item= `CC(C)(C)c1ccc(COc2ccc([C@@H](NC(=O)[C@H](CCCCN)NC(=O)[C@H](CCCNC(=N)N)NC(=O)c3cc4sccc4s3)C(N)=O)cc2)cc1`
94.1

GET /values?readout=inhibition&system=West Nile virus&item= `N=C(N)NCCC[C@H](NC(=O)[C@H](CCCCN)NC(=O)c1ccccc1)C(=O)N[C@@H](C(N)=O)c1ccc(OCc2ccccc2)cc1`
91.7

Attribution: ChEMBL document CHEMBL3739314
